# Test system: CCRIS mutagenicity, Ames/micronucleus/aberration tests
# Run description: CCRIS mutagenicity studies
# Measurement setup: Test System: AMES SALMONELLA TYPHIMURIUM; Strain/Indicator: TA98; Metabolic Activation: NONE; Method: STANDARD PLATE
The source made the active and inactive calls. The rule behind the calls is not given here.
Property measured: mutagenic call

The following compounds have reported results that may help.
CC(C)Nc1nc(Cl)nc(NC(C)C)n1 = inactive; negative
Cn1c2ccccc2c2cc([N+](=O)[O-])ccc21 = active; positive
O=[N+]([O-])c1cc2c(cc1Cl)Oc1cc(Cl)c(Cl)cc1O2 = active; positive
Oc1ccc2ccc3c4c(ccc3c2c1)[C@@H](O)[C@H](O)C=C4 = inactive; negative
O=C(/C=C/c1ccc(O)cc1)c1ccccc1 = inactive; negative

Lab note: next compound to report on.
## Input Provide value of mutagenic call for this record tested with CCRIS mutagenicity, Ames/micronucleus/aberration tests: O=c1c(O)c(-c2ccc(O)cc2)oc2cc(O)cc(O)c12
## Output inactive; negative

Just for reference, PubChem BioAssay AID1259407 is where these values come from.
